system: Candida albicans; test: Antifungal activity against Candida albicans MTCC 183 after 48 hrs by broth microdilution method; type: functional; settings: MTCC 183, 48 h
Provide the recorded MIC for the entries that follow.
Numbers only, in µM.

CN(C)C(=S)SC(=S)N1CCCC1    53.4
CCCCSC(=S)N1CCN(C(=S)SC(=S)N(C)C)CC1    131

Note MIC for the compound shown: CN(C)C(=S)SC(=S)N1CCCCCC1 47.7

====

assay: Selectivity index, ratio of IC50 for human HeLa cells to MIC for metronidazole-resistant Trichomonas vaginalis CDC085 ATCC 50143; type: toxicity; conditions: read-out: Selectivity Index
Provide the recorded selectivity ratio for the entries that follow.
One number for each entry.

CN1CCN(C(=S)SC(=S)N(C)C)CC1    12

Go through the items and report each one's selectivity ratio.
1. CCCCN1CCN(C(=S)SC(=S)N(C)C)CC1
2. CN(C)C(=S)SC(=S)N1CCOCC1

[50, 10]
